Where do the numbers come from? From ChEMBL document CHEMBL4052621.

# Test system: RAW264.7
# ASSAY_COMMENT: Cytotoxicity against mouse RAW264.7 cells assessed as decrease in cell viability after 24 hrs by MTT assay
# Type: cell-based
# STATED_CONDITIONS: RAW264.7, 24 h
Each entry below lists one item and its recorded IC50 value.
Number only, in µM; omit the unit.

| COMPOUND | UNIT_TEXT | TEST_RESULT |
| --- | --- | --- |
| O=C(S[C@@]12CC[C@H](O)[C@@H]1C(=O)NC2=O)c1ccccc1Cl (relative stereo) | µM | 668 |
| O=C(S[C@@]12CC[C@H](O)[C@@H]1C(=O)NC2=O)c1ccccc1 (relative stereo) | µM | 479 |
| O=C(S[C@]12CC[C@H](O)[C@H]1C(=O)NC2=O)c1ccc(F)cc1 (relative stereo) | µM | 474 |
| O=C(S[C@]12CCC[C@H]1C(=O)NC2=O)c1ccc(F)cc1 (relative stereo) | µM | 384 |
| CC(=O)S[C@@]12CC[C@H](O)[C@@H]1C(=O)NC2=O (relative stereo) | µM | 558 |

Task: Under RAW264.7: IC50 value of `O=C(S[C@]12CC[C@H](O)[C@H]1C(=O)NC2=O)c1ccc(O)cc1` ?
Output: 1380

Task: Under RAW264.7: IC50 value of CC(=O)S[C@]12CCC[C@H]1C(=O)NC2=O (relative stereo) ?
Output: 674

Task: Under RAW264.7: IC50 value of CC(=O)OC1CC[C@]2(SC(=O)c3ccccc3)C(=O)NC(=O)[C@H]12 (stereo partly drawn) ?
Output: 1910

###

# System: RAW264.7
# ASSAY_COMMENT: Cytotoxicity against mouse RAW264.7 cells assessed as decrease in cell viability after 24 hrs by MTT assay
# Type: cell-based
# STATED_CONDITIONS: RAW264.7, 24 h
ASSAY_ENDPOINT: IC50 (µM)
Number only, in µM; omit the unit.

Task: Under RAW264.7: IC50 value of `O=C(S[C@@]12CC[C@H](O)[C@@H]1C(=O)NC2=O)c1ccc(O)cc1` ?
Output: 1020

###

# Tested on: RAW264.7
# ASSAY_COMMENT: Cytotoxicity against mouse RAW264.7 cells assessed as decrease in cell viability after 24 hrs by MTT assay
# Format: cell-based
# STATED_CONDITIONS: RAW264.7, 24 h
ASSAY_ENDPOINT: IC50 (µM)
Number only, in µM; omit the unit.

The cases that follow already have their IC50 on record.
| COMPOUND | TEST_RESULT |
| --- | --- |
| O=C(Cc1ccccc1)S[C@]12CC[C@H](O)[C@H]1C(=O)NC2=O (relative stereo) | 774 |
| O=C(Cc1ccccc1)S[C@]12CCC[C@H]1C(=O)NC2=O (relative stereo) | 426 |
| O=C(S[C@@]12CC[C@@H](O)[C@@H]1C(=O)NC2=O)c1ccc(O)cc1 | 2910 |

Task: Field request: IC50 | item: O=C(Cc1ccccc1)S[C@@]12CC[C@H](O)[C@@H]1C(=O)NC2=O (relative stereo)
Output: 834

Task: Field request: IC50 | item: O=C(SC1CC[C@]2(SC(=O)c3ccc(F)cc3)C(=O)NC(=O)[C@H]12)c1ccc(F)cc1 (some centres undefined)
Output: 211
